Data provenance is patent US20250034266A1.

# tgt: human CCR8 (human, UniProt P51685 1-355)
# Sequence (P51685 whole entry): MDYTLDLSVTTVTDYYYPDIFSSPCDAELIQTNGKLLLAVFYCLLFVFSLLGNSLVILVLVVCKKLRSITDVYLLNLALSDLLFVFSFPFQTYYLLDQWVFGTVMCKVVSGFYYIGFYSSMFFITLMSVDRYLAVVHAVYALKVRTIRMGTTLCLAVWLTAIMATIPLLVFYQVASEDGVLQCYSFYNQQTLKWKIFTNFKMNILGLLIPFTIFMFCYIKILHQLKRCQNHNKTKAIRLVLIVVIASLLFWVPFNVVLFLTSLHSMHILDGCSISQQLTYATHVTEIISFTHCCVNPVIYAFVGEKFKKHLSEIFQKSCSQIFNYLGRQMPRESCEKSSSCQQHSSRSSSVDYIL
# testDescription: cell-based or functional assay
attributeMeasured: Max Inhibition (%), CCL1 induced β-Arrestin recruitment
Note: unit % is implicit; provide only the numeric part.

Data request: Specify Max Inhibition (%), CCL1 induced β-Arrestin recruitment for 160D1E3 (antibody, V domains shown, purified murine hybridoma antibody) VH: EVQLVESGGGLVQPKGSLKLSCAASGFTFNTYAMNWVRQAPGKGLEWVARIRSKSNYYATYYADSVKDRFTISRDDSQDMLYLQMNNLKTEDTAIYYCVRGRDYGSSYAMDYWGQGTSVTVSS VL: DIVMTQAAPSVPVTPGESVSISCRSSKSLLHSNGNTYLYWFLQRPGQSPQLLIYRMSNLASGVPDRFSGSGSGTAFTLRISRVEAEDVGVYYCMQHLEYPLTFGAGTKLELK and stop.
Data returned: 41.3

Data request: Specify Max Inhibition (%), CCL1 induced β-Arrestin recruitment for 164G10D6 (antibody, V domains shown, purified murine hybridoma antibody) VH: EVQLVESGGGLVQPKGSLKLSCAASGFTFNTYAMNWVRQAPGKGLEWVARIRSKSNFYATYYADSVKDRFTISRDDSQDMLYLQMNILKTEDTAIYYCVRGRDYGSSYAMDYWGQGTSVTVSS VL: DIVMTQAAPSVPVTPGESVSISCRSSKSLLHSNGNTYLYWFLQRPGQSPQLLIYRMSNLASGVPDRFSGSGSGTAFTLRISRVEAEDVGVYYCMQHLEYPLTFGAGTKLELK and stop.
Data returned: 42

Data request: Specify Max Inhibition (%), CCL1 induced β-Arrestin recruitment for 153D4G2 (antibody, V domains shown, purified murine hybridoma antibody) VH: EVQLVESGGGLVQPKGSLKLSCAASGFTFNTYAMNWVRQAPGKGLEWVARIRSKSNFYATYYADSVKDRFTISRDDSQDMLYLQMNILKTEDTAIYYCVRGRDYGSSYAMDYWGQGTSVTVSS VL: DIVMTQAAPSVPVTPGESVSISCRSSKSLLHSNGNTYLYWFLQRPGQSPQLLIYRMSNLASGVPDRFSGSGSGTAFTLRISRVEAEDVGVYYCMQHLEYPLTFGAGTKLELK and stop.
Data returned: 33.8

Data request: Specify Max Inhibition (%), CCL1 induced β-Arrestin recruitment for 204A2G12 (antibody, V domains shown, purified murine hybridoma antibody) VH: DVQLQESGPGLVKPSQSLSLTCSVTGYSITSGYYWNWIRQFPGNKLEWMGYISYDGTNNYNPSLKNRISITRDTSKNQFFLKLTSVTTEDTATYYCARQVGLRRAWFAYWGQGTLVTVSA VL: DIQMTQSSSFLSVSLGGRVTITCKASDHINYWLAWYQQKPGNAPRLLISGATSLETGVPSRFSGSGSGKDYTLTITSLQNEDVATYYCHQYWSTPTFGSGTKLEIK and stop.
Data returned: 30.9

Data request: Specify Max Inhibition (%), CCL1 induced β-Arrestin recruitment for 149F2C10 (antibody, V domains shown, purified murine hybridoma antibody) VH: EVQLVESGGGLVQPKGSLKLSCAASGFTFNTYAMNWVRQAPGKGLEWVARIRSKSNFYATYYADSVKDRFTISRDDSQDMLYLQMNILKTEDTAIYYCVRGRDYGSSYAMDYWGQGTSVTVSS VL: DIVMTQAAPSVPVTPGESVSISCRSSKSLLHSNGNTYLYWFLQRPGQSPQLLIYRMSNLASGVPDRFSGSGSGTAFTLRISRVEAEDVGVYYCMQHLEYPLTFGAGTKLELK and stop.
Data returned: 32
